We begin with a simple list: items and their reported CTE in VERO-E6 cells.
- Test system: VERO-E6 cells
- Assay: Cell viability MTT assay in VERO-E6 cells
- Assay type: cell-based, African Green Monkey
- Applied Conditions: VERO-E6 cell line, 72 h

>  <Molecule>
CC(C)C[C@H](N)C(=O)NCCCNC(=O)OC1C/C(=C\c2ccc([N+](=O)[O-])cc2)C(=O)/C(=C/c2ccc([N+](=O)[O-])cc2)C1 (stereo partly shown) [Compound T124]

>  <Result>
> 30 µM

$$$$
>  <Molecule>
NCCCNC(=O)OC1C/C(=C\c2ccc([N+](=O)[O-])cc2)C(O)/C(=C/c2ccc([N+](=O)[O-])cc2)C1 (stereo not shown) [Compound T122]

>  <Result>
> 30 µM

$$$$

As a next step, examine the molecule that follows.
## Input Find the measured CTE in VERO-E6 cells of NC(=O)[C@H](Cc1ccccc1)NC(=O)OC1C/C(=C\c2ccc([N+](=O)[O-])cc2)C(=O)/C(=C/c2ccc([N+](=O)[O-])cc2)C1 (stereo partly shown) [Compound T121] and report it.
## Output 10 to 15 µM
